# assayed target: T1, IL-1beta (UniProt P01584 117-269)
# T1 construct: also called IL-1β
# assay protocol: Biacore
measured attribute: binding result

| binder | observed result |
| --- | --- |
| XPA23 Fab, heavy chain V50K (Fab, V domains shown) VH: EVQLLESGGGLVQPGGSLRLSCAASGFTFSKYFMFWVRQAPGKGLEWVSKISPSGGMTRYADSVKGRFTISRDNSKNTLYLQMNSLRAEDTAVYYCARVGYGGNSDYWGQGTLVTVSS VL: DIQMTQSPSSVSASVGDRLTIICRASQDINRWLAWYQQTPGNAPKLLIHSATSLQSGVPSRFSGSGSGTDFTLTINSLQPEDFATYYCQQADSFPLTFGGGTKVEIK | no binding |
| XPA23 Fab, heavy chain S30Y (Fab, V domains shown) VH: EVQLLESGGGLVQPGGSLRLSCAASGFTFYKYFMFWVRQAPGKGLEWVSVISPSGGMTRYADSVKGRFTISRDNSKNTLYLQMNSLRAEDTAVYYCARVGYGGNSDYWGQGTLVTVSS VL: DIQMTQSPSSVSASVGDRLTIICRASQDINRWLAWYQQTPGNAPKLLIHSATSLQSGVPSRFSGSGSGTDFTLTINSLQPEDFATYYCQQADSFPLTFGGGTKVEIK | no binding |
